# system_under_test: GRID2IP_2, A4D2P6
# Sequence (A4D2P6 272-370): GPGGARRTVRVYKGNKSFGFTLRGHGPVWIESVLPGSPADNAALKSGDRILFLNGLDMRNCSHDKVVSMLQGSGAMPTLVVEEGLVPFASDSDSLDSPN
# method_description: holdup assay
# Design: key: below the threshold = too weak to quantify, mostly under pKd 3.1 to 4
# experimental_conditions: plain residues with an end cap or a label only (N-terminal biotin on a linker: ado-ado)
readout_name: pKd

binder | readout_name | readout_value
HLRARKSEWV [GJD4, Q96KN9] | pKd | 3.89
TASPAKETSF [SLC2A7, Q6PXP3] | pKd | below the threshold
EALLQMESVA [CAVIN3, Q969G5] | pKd | below the threshold
TSSMRGMDAV [RSRC2, Q7L4I2] | pKd | below the threshold
DDEDRLVIEI [ZNF831, Q5JPB2] | pKd | below the threshold
TLPRKRMSSI [GPRC6A, Q5T6X5] | pKd | 3.87

Req: Which pKd is reported for this binder? QGLAERISVL [PRKD2, Q9BZL6]
Resp: 4.81

Req: Which pKd is reported for this binder? GSGAVEMESV [AQP6, Q13520]
Resp: below the threshold

Req: Which pKd is reported for this binder? SSALYGESDL [ACTN2, P35609]
Resp: below the threshold
